target: T1, human FOLR1-HIS (Homo sapiens, UniProt P15328); experiment: Biacore kinetics (surface plasmon resonance); type: binding; settings: humanized 6D1 (2060) antibodies, Table 9
T1 construct: HIS
T1 sequence (P15328 25-234): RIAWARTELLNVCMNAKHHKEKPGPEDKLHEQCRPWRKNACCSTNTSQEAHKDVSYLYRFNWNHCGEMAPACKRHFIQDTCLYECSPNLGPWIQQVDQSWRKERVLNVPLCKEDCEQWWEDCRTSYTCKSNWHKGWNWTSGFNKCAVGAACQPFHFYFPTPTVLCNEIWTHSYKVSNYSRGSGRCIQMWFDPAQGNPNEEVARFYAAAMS
observable: Biacore kinetics kd (s⁻¹)
Report the value in s⁻¹ with no unit label.

Task: // Biacore kinetics kd lookup, key: SRP2060-A06 (antibody, V domains shown) VH: EVQLLESGGGLVQPGGSLRLSCAFSGFSLSTFGMGVGWVRQAPGKGLEWVGHIWWDDDKYYYPALKGRFTISKDNSKNTVYLQMNSLRAEDTAVYYCGRNHFPHYYGSSHWYFDVWGQGTTVTVSS VL: DIQMTQSPSTLSASVGDRVTITCKASQDINSYLSWYQQKPGKAPKLLIYRANRLVDGVPSRFSGSGSGTEFTLTISSLQPDDFATYYCLQYDEFPYTFGGGTKVEIK
Output: 0.00729

Ref: patent US10596270B2
